- targetOrTestSystem: Estrogen Receptor (ERα) in MCF-7 cells (Homo sapiens (Human))
- Sequence (P03372 whole entry): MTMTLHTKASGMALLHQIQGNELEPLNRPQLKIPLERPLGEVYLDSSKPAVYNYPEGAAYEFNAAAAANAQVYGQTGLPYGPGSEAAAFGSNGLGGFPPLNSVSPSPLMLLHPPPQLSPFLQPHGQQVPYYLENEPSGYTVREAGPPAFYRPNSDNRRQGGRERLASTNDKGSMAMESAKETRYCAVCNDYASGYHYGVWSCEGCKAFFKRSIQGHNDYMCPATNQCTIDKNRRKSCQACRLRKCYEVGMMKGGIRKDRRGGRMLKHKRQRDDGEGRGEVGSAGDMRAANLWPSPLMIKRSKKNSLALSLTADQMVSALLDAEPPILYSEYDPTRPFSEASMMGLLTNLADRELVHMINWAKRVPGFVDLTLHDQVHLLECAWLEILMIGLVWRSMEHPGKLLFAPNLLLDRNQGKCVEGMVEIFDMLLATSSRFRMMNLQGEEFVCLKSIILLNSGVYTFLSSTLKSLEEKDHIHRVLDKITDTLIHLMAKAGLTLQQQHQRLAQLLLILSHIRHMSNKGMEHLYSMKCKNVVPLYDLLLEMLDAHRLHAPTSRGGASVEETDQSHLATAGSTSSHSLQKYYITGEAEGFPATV
- protocolNotes: Western blotting assay, ER down-regulation in MCF-7
- Type: cell-based
- conditions: MCF-7, 100 nM compound, 48 h, vs 100 nM fulvestrant
# if value of MCF7 Western % ER deg vs Fv reaches 90%, tag T; if it stays below, tag F

>>> assignedclass("C[C@@H]1Cc2c([nH]c3ccccc23)[C@@H](c2c(F)cnc(OCCNCCCF)c2Cl)N1CC(F)(F)CO [Example 111]")
"F"

Problem: Given COc1ccc(OCCNCCCF)cc1[C@@H]1c2[nH]c3ccccc3c2C[C@@H](C)N1CC(F)F [Example 6] , state whether its MCF7 Western % ER deg vs Fv is at least 90%.
Result: T

Problem: Reported MCF7 Western % ER deg vs Fv at or above 90%? CCc1ccc(OCCNCCCF)cc1[C@@H]1c2[nH]c3ccccc3c2C[C@@H](C)N1CC(F)(F)F [Example 21]
Result: T

Problem: Does C[C@@H]1Cc2c([nH]c3ccccc23)[C@@H](c2c(F)cnc(OCCNCCCF)c2F)N1CC(F)(F)CO [Example 64] have a reported MCF7 Western % ER deg vs Fv of at least 90%?
Result: T
